Each recorded value in this set is attributed to patent US9926306B2.

# system-name: BFL-1/A1ΔC (Homo sapiens (Human))
# Sequence (Q16548 1-153): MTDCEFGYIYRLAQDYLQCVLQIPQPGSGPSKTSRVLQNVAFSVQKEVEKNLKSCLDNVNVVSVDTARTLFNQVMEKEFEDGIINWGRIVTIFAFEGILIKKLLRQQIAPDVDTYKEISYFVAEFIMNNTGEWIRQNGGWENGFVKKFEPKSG
# assay-method-text: Competitive fluorescence polarization binding assay, BFL-1/A1 (FITC-BID BH3)
# assay-setup: Table A
# Description: FIG. 19A and FIG. 19B are graphs that show potent targeting of the anti-apoptotic protein BFL-1/A1 by MIM1. […] Thus, the complex between FITC-BID BH3 and BFL-1/A1ΔC was employed in a competitive FP assay to monitor the capacity of MIM1 to target BFL-1/A1ΔC.
observable: pIC50
Give bare numbers, as −log10 of the molar value.

Some compounds with recorded pIC50:
compound	system-name	observable	observed-measurement
CC(C)(C)Cc1cs/c(=N\C2CCCCC2)n1/N=C/c1ccc(O)c(O)c1O	BFL-1/A1ΔC (Homo sapiens (Human))	pIC50	5.82
Oc1ccc(/C=N/n2c(C3CC3)cs/c2=N\c2ccccc2)cc1O	BFL-1/A1ΔC (Homo sapiens (Human))	pIC50	5.52
Cc1cs/c(=N\C2CC3CCC2C3)n1/N=C/c1cc(O)c(O)cc1O (stereo not shown) [183-82]	BFL-1/A1ΔC (Homo sapiens (Human))	pIC50	6.77

What does the data say about its pIC50? Entry: CCOC(=O)c1s/c(=N\C2CCCCC2)n(/N=C/c2ccc(O)c(O)c2O)c1C
6.42

* * *

Dear all, this message contains pIC50 results, target or system MCL-1ΔNΔC (Homo sapiens (Human)).
Numbers only, as −log10 of the molar value.

Look at each molecule and report its pIC50.
1. Cc1cs/c(=N\C2CC3CCC2C3)n1/N=C/c1cc(O)c(O)cc1O (centres unmarked) [183-82]
2. CC(C)C(C)/N=C1\SCC(Br)(C2CC2)N1/N=C/c1cc(O)c(O)cc1O (centres unmarked) [187-19]

6.00
6.05

* * *

# system-name: MCL-1ΔNΔC (Homo sapiens (Human), UniProt Q07820)
# Sequence (Q07820 172-327, stated change not applied): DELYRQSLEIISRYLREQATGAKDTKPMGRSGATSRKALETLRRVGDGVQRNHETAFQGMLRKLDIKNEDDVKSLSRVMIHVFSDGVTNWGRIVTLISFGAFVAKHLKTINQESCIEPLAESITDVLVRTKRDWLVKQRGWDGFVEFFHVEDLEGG
observable: pIC50
Numbers only, as −log10 of the molar value.

Look at each molecule and report its pIC50.
1. Oc1ccc(/C=N/N2/C(=N/C3CCCCC3)SCC2(O)C(F)(F)F)c(O)c1O (stereo not drawn)
2. Oc1cc(O)c(/C=N/n2c(C3CC3)cs/c2=N\C2CCCCC2)cc1O
3. Oc1ccc(/C=N/n2c3c(s/c2=N\C2CCCCC2)CCCC3)c(O)c1O
4. CC(C)(C)c1cs/c(=N\C2CCCCC2)n1/N=C/c1cc(O)c(O)cc1O

1. 5.54
2. 6.91
3. 5.35
4. 6.82

Look at each molecule and report its pIC50.
1. Cc1s/c(=N\C2CCCCC2)n(/N=C/c2cc(O)c(O)cc2O)c1C1CC1
2. CC(C)(C)c1cs/c(=N\C2CCCCC2)n1/N=C/c1ccc(O)c(O)c1

6.23
4.75

* * *

Dear all, this message contains IC50 results, target or system MCL-1ΔNΔC (Homo sapiens (Human), UniProt Q07820).
Answers are plain numbers, in nM.

molecule	system-name	output-unit	IC50
Oc1ccc(/C=N/n2c(C3CC3)cs/c2=N\C2CCCCC2)c(O)c1O [178-83]	MCL-1ΔNΔC (Homo sapiens (Human), UniProt Q07820)	nM	910

Look at each molecule and report its IC50.
1. COc1cc(/C=N/n2c(C)cs/c2=N\C2CCCCC2)cc(OC)c1OC [183-85]
2. Cc1cs/c(=N\C2CCCc3ccccc32)n1/N=C/c1cc(O)c(O)cc1O (stereo not drawn) [187-22]

1: 7600; 2: 1410
